Each record here notes measured relative viability.
System: EKVX
Test protocol: relative viability (nuclei count vs DMSO), 5 days (fraction); higher = more cells survive
Run parameters: first compound 0.1581 µM
Just the number, please.

Q: Hello, please tell me recorded relative viability for this one: COc1cc2nccc(Oc3ccc(NC(=O)Nc4cc(C)on4)c(Cl)c3)c2cc1OC [Tivozanib] + Cc1nc(NC(=O)N2CCC[C@H]2C(N)=O)sc1-c1ccnc(C(C)(C)C(F)(F)F)c1 [Alpelisib] (partner 2 µM)
Ans: 0.888

Q: Output measured relative viability for this item: Nc1ccn([C@@H]2O[C@H](CO)[C@@H](O)[C@@H]2O)c(=O)n1 [Cytarabine] + N=C(N)NC(=N)NCCc1ccccc1 [Phenformin] (partner 250 µM)
Ans: 0.211

For the next question, use this molecule.
Q: Name the recorded relative viability of the molecule listed here: Nc1ccn([C@@H]2O[C@H](CO)[C@@H](O)[C@@H]2O)c(=O)n1 [Cytarabine] + CC1(C)CCC(c2ccc(Cl)cc2)=C(CN2CCN(c3ccc(C(=O)NS(=O)(=O)c4ccc(N[C@H](CCN5CCOCC5)CSc5ccccc5)c(S(=O)(=O)C(F)(F)F)c4)cc3)CC2)C1 [Navitoclax] (partner 0.5 µM)
Ans: 0.298

###

Tested on: HCC-78
Test protocol: relative viability (nuclei count vs DMSO), 5 days (fraction); higher = more cells survive
Run parameters: first compound 0.1265 µM
Readout: relative viability
API doc: respond with a numeric literal and nothing else, no unit.

Q: Please supply the value of reported relative viability for the item Cc1sc2c(c1C)C(c1ccc(Cl)cc1)=N[C@@H](CC(=O)OC(C)(C)C)c1nnc(C)n1-2 [JQ1] + CC1(C)CCC(c2ccc(Cl)cc2)=C(CN2CCN(c3ccc(C(=O)NS(=O)(=O)c4ccc(N[C@H](CCN5CCOCC5)CSc5ccccc5)c(S(=O)(=O)C(F)(F)F)c4)cc3)CC2)C1 [Navitoclax] (partner 0.5 µM)
Ans: 0.761

Okay, next one:
Q: Recall and state the measured relative viability for Cc1sc2c(c1C)C(c1ccc(Cl)cc1)=N[C@@H](CC(=O)OC(C)(C)C)c1nnc(C)n1-2 [JQ1] + Nc1nc2[nH]cc(CCc3ccc(C(=O)N[C@@H](CCC(=O)O)C(=O)O)cc3)c2c(=O)[nH]1 [Pemetrexed] (partner 0.2 µM) .
Ans: 0.957

###

System: NCI-H520
Test protocol: relative viability (nuclei count vs DMSO), 5 days (fraction); higher = more cells survive
Run parameters: first compound 0.5 µM
Measured relative viability, listed per entry for reference.
Give your answer as a number; write no unit.

Example molecules with recorded relative viability:
Q: Report measured relative viability; entry is Nc1ccn([C@@H]2O[C@H](CO)[C@@H](O)[C@@H]2O)c(=O)n1 [Cytarabine] + Nc1ncn([C@H]2C[C@H](O)[C@@H](CO)O2)c(=O)n1 [Decitabine] (partner 2 µM)
Ans: 0.349

Q: Give recorded relative viability. Nc1ccn([C@@H]2O[C@H](CO)[C@@H](O)[C@@H]2O)c(=O)n1 [Cytarabine] + CC(=O)Nc1cccc(-n2c(=O)n(C3CC3)c(=O)c3c(Nc4ccc(I)cc4F)n(C)c(=O)c(C)c32)c1 [Trametinib] (partner 0.02 µM)
Ans: 0.484

Q: Return relative viability (reported value) for this molecule: COc1cc2nccc(Oc3ccc(NC(=O)Nc4cc(C)on4)c(Cl)c3)c2cc1OC [Tivozanib] + C[C@]1(O)C[C@@H](c2nc(-c3ccc4ccc(-c5ccccc5)nc4c3)c3c(N)nccn32)C1 [Linsitinib] (partner 1 µM)
Ans: 0.821

Please turn your attention to the following entry.
Q: Consider the molecule COc1cc2nccc(Oc3ccc(NC(=O)Nc4cc(C)on4)c(Cl)c3)c2cc1OC [Tivozanib] + CC(=O)c1c(C)c2cnc(Nc3ccc(N4CCNCC4)cn3)nc2n(C2CCCC2)c1=O [Palbociclib] (partner 0.5 µM) and give its recorded relative viability.
Ans: 0.231

###

Tested on: NCI-H520
Test protocol: relative viability (nuclei count vs DMSO), 5 days (fraction); higher = more cells survive
Run parameters: first compound 1.265 µM
Rule: measured relative viability below 0.2 gets yes (1); anything equal to or greater than 0.2 gets no (0).

Below are worked cases with known answers.
Q: Below 0.2 on relative viability? Entry Cc1sc2c(c1C)C(c1ccc(Cl)cc1)=N[C@@H](CC(=O)OC(C)(C)C)c1nnc(C)n1-2 [JQ1] + Cc1cc(Nc2cc(N3CCN(C)CC3)nc(Sc3ccc(NC(=O)C4CC4)cc3)n2)n[nH]1 [Tozasertib] (partner 0.1 µM)
Ans: no (0)

Q: relative viability strictly < 0.2 for this compound? Cc1sc2c(c1C)C(c1ccc(Cl)cc1)=N[C@@H](CC(=O)OC(C)(C)C)c1nnc(C)n1-2 [JQ1] + CCNC(=O)c1noc(-c2cc(C(C)C)c(O)cc2O)c1-c1ccc(CN2CCOCC2)cc1 [Luminespib] (partner 0.01 µM)
Ans: no (0)

Q: Is 0.2 strictly greater than the compound's reported relative viability? compound: Cc1sc2c(c1C)C(c1ccc(Cl)cc1)=N[C@@H](CC(=O)OC(C)(C)C)c1nnc(C)n1-2 [JQ1] + C[C@]1(O)C[C@@H](c2nc(-c3ccc4ccc(-c5ccccc5)nc4c3)c3c(N)nccn32)C1 [Linsitinib] (partner 1 µM)
Ans: no (0)

Q: Would you kindly verify if relative viability of Cc1sc2c(c1C)C(c1ccc(Cl)cc1)=N[C@@H](CC(=O)OC(C)(C)C)c1nnc(C)n1-2 [JQ1] + O=C(CCCCCCC(=O)Nc1ccccc1)NO [Vorinostat] (partner 1 µM) is strictly less than 0.2?
Ans: no (0)

Q: Would you kindly verify if relative viability of Cc1sc2c(c1C)C(c1ccc(Cl)cc1)=N[C@@H](CC(=O)OC(C)(C)C)c1nnc(C)n1-2 [JQ1] + CC(C)C[C@H](NC(=O)[C@H](Cc1ccccc1)NC(=O)c1cnccn1)B(O)O [Bortezomib] (partner 0.002 µM) is strictly less than 0.2?
Ans: yes (1)

Moving on to another compound below.
Q: is_below(relative viability, 0.2) for Cc1sc2c(c1C)C(c1ccc(Cl)cc1)=N[C@@H](CC(=O)OC(C)(C)C)c1nnc(C)n1-2 [JQ1] + O=C(c1cc(Cc2n[nH]c(=O)c3ccccc23)ccc1F)N1CCN(C(=O)C2CC2)CC1 [Olaparib] (partner 8 µM) ?
Ans: yes (1)

###

Reported relative viability values for a set of compounds
Tested on: NCI-H596
Test protocol: relative viability (nuclei count vs DMSO), 5 days (fraction); higher = more cells survive
Run parameters: first compound 158.11 µM
Quick one: just the number, no unit, thanks!

The following compounds have reported results that may help.
Q: Check the records and state relative viability for O=C(O)CCCCC(CCSCc1ccccc1)SCc1ccccc1 (stereo not given) [CPI-613] + Cc1nc(Nc2ncc(C(=O)Nc3c(C)cccc3Cl)s2)cc(N2CCN(CCO)CC2)n1 [Dasatinib] (partner 0.075 µM)
Ans: 0.465

Q: Using known records, supply relative viability for O=C(O)CCCCC(CCSCc1ccccc1)SCc1ccccc1 (stereo not given) [CPI-613] + N=C(N)NC(=N)NCCc1ccccc1 [Phenformin] (partner 250 µM)
Ans: 0.668

Q: Report relative viability for O=C(O)CCCCC(CCSCc1ccccc1)SCc1ccccc1 (stereo not given) [CPI-613] + CCNC(=O)c1noc(-c2cc(C(C)C)c(O)cc2O)c1-c1ccc(CN2CCOCC2)cc1 [Luminespib] (partner 0.01 µM)
Ans: 0.168

Q: Please give the documented relative viability of O=C(O)CCCCC(CCSCc1ccccc1)SCc1ccccc1 (stereo not given) [CPI-613] + C[C@@H](Oc1cc(-c2cnn(C3CCNCC3)c2)cnc1N)c1c(Cl)ccc(F)c1Cl [Crizotinib] (partner 1 µM)
Ans: 0.589

Others:
Q: // Input: O=C(O)CCCCC(CCSCc1ccccc1)SCc1ccccc1 (stereo not given) [CPI-613] + COc1cc2c(Oc3ccc(NC(=O)C4(C(=O)Nc5ccc(F)cc5)CC4)cc3F)ccnc2cc1OCCCN1CCOCC1 [Foretinib] (partner 0.25 µM) . Output its relative viability only.
Ans: 0.592

###

Test system: NCI-H1395
Test protocol: relative viability (nuclei count vs DMSO), 5 days (fraction); higher = more cells survive
Run parameters: first compound 15.81 µM
Readout: relative viability
I'd appreciate a reply containing only the number, no unit.

Q: Note down relative viability recorded for O=C(O)CCCCC(CCSCc1ccccc1)SCc1ccccc1 (stereo not drawn) [CPI-613] + CC(=O)c1c(C)c2cnc(Nc3ccc(N4CCNCC4)cn3)nc2n(C2CCCC2)c1=O [Palbociclib] (partner 0.5 µM)
Ans: 0.641

Q: Indicate its recorded relative viability; the compound in question is O=C(O)CCCCC(CCSCc1ccccc1)SCc1ccccc1 (stereo not drawn) [CPI-613] + COc1cccc2cc(-c3nc([C@H]4CC[C@H](C(=O)O)CC4)n4ncnc(N)c34)[nH]c12 [OSI-027] (partner 0.5 µM)
Ans: 0.602

From here, focus on the item given below.
Q: Fill in reported relative viability for this entry: O=C(O)CCCCC(CCSCc1ccccc1)SCc1ccccc1 (stereo not drawn) [CPI-613] + CS(=O)(=O)CCNCc1ccc(-c2ccc3ncnc(Nc4ccc(OCc5cccc(F)c5)c(Cl)c4)c3c2)o1 [Lapatinib] (partner 2 µM)
Ans: 0.91
